B1: Cyclin-F, residues 28 to 80; numbered along this chain, P41002 (parent)
chain: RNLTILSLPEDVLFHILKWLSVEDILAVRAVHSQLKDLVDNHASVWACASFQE

Variants of: B1
Assay: abundance fitness (aPCA) (normalised: wild type 0, dead -1); higher = more abundant; growth selection in yeast, the domain comes from the species named
Settings: Homo sapiens
For each of the variants below, state its abundance fitness.
I'd appreciate a reply containing only the number, no unit.

For reference, reported abundance fitness for L20C stands at -0.42

For reference, reported abundance fitness for L38P stands at -0.935

For reference, reported abundance fitness for D24M stands at -0.595

For reference, reported abundance fitness for V39E stands at -0.819

For reference, reported abundance fitness for F51V stands at -0.034

For reference, reported abundance fitness for L3Q stands at -0.863

For reference, reported abundance fitness for E10H stands at -0.166

For reference, reported abundance fitness for K36H stands at -0.445

For reference, reported abundance fitness for S44Q stands at -0.306

For reference, reported abundance fitness for N2I stands at -0.618

For reference, reported abundance fitness for V28A stands at -0.774

For reference, reported abundance fitness for E53R stands at -0.068

For reference, reported abundance fitness for L20Q stands at -0.893
